- assay.remarks: Half-life in BALB/c mouse at 5 mg/kg, iv and measured up to 24 hrs by LC-MS/MS analysis
- Format: ADME, organism-based
- condition.parameters: in vivo
result.type: half-life (min)
Enter your answer as a number in min; do not include the unit.

Sample answers from the record:
| molecule | value.unit | half-life |
| --- | --- | --- |
| O=C1CC[C@H](N2Cc3c(OCc4ccc(CN5CCOCC5)cc4)cccc3C2=O)C(=O)N1 [IBERDOMIDE] | min | 58.2 |
| O=C1CCC(N2Cc3c(SCc4ccc(CN5CCOCC5)cc4)cccc3C2=O)C(=O)N1 (centres undefined) | min | 52.8 |
| O=C1CCC(N2Cc3c(SCc4ccc(C(=O)N5CCCCC5)cc4)cccc3C2=O)C(=O)N1 (centres undefined) | min | 42 |

Continue with the next molecule.
input: Assign half-life to the following record: O=C1CCC(N2Cc3c(SCc4ccc(Cl)cc4)cccc3C2=O)C(=O)N1 (centres undefined)
output: 113
